Where do the numbers come from? From ChEMBL document CHEMBL1201862.

# Test system: HL-60
# experiment_description: NCI tumour cell line growth inhibition, 48 h
Active and inactive are the calls of the source. No stated cut-off is given here; in the data, active = GI50 up to about 1.1 µM and inactive = higher.
Form entry, call: pick from active, inactive

Data request: What outcome does the record of this test show for `Cc1c2cccc-2ccc2c1[nH]c1ccccc12` ?
Data returned: inactive

Data request: Can you check COc1cc(S(=O)(=O)Nc2ccc(-c3csc(N4C(=O)C(Cl)C4c4cccc(Oc5ccccc5)c4)n3)cc2)ccc1Cl (stereo unspecified) next?
Data returned: inactive

Data request: Can you check `CCOc1ccc2[nH]c3c(C)c4cc[n+](C)cc4c(C)c3c2c1` next?
Data returned: inactive

Data request: Can you check `C=C(C(=O)OC)[C@H]1CC/C(C)=C/CC/C(C)=C/CC[C@@]2(C)O[C@@H]2C1` next?
Data returned: inactive

Data request: Can you check CC(C)(C)c1cc2c(OC/C=C/c3ccccc3)c(c1)Cc1cc(C(C#N)(OC/C=C/c3ccccc3)OC/C=C/c3ccccc3)cc(c1OC/C=C\c1ccccc1)Cc1cc(C(C)(C)C)cc(c1OC/C=C/c1ccccc1)Cc1cc(C(C#N)(OC/C=C\c3ccccc3)OC/C=C/c3ccccc3)cc(c1OC/C=C\c1ccccc1)C2 (stereo unspecified) next?
Data returned: inactive

Data request: Can you check `CCCCN(CCCC)CC(=O)c1ccc2cc(Cl)c3ccccc3c2c1` next?
Data returned: inactive

Data request: Can you check CCCCC1C=Cn2c(=O)oc3c(OC(C)C)c(C)c(O)c1c32 (stereo unspecified) next?
Data returned: active

Data request: Can you check N#C[C@H](OC1OC(COC2OC(CO)C(O)C(O)C2O)C(O)C(O)C1O)c1ccccc1 (stereo partly specified) next?
Data returned: inactive

Data request: Can you check `S=c1cc(S)c2c(=S)sc3nc4ccccn4c(=S)c3c2s1` next?
Data returned: inactive

Data request: Can you check CC12CCC(C1)C(C)(C)C2OC(=O)c1ccccc1C(=O)O (stereo unspecified) next?
Data returned: inactive

Data request: Can you check `Nc1nc(Cl)nc(NCc2ccccc2)n1` next?
Data returned: inactive

Data request: Can you check `COc1cc(/C=C2\N=C(c3ccccc3)N(c3nc4ccc(Sc5ccccc5)cc4[nH]3)C2=O)cc(OC)c1OC` next?
Data returned: inactive

Data request: Can you check COc1cc(C2c3c(ccc4ccccc34)C(=O)C3CCC(=O)N32)cc(OC)c1OC (stereo unspecified) next?
Data returned: inactive

Data request: Can you check CC(C)=CC(=O)N(C)C1C2CN3CCC(O2)C13 (stereo unspecified) next?
Data returned: inactive

Data request: Can you check CCCCCC(C)SC1(C(=O)OC)CC(OC(C)=O)C(NC(C)=O)C([C@H](OC(C)=O)[C@@H](COC(C)=O)OC(C)=O)O1 (stereo partly specified) next?
Data returned: inactive

Data request: Can you check `CCc1n[nH]c(=O)n1N=C(c1ccccc1)c1ccccc1` next?
Data returned: inactive

Data request: Can you check `O=C1C(c2c(O)[nH]c3ccc(Br)cc23)=Nc2ccc(Br)cc21` next?
Data returned: inactive

Data request: Can you check `ClC1(c2ccccc2)c2ccc(Br)cc2-c2cc(Br)ccc21` next?
Data returned: inactive

Data request: Can you check `O=C(c1ccccc1)c1oc2ccc(Br)cc2c1-c1cnn(-c2ccccc2)c1` next?
Data returned: inactive

Data request: Can you check `C/C=C(\CCOS(=O)(=O)c1ccc(C)cc1)[Si](C)(C)C` next?
Data returned: inactive

Data request: Can you check CC(CCOc1ccc2ccc(=O)oc2c1)C1=CC(=O)C(C)(C)O1 (stereo unspecified) next?
Data returned: inactive
